Where these numbers come from: patent US20090234122A1

Experiment: Lightfastness of cyanine dye thin membranes under xenon lamp irradiation
Assay type: physicochemical
Settings: thin membrane on glass, 180 W/m^2, 5.5 hours, transmittance at absorption maximum (about 450 nm), lightfastness improver: Non
Protocol: The solution was in conventional manner dropped to homogeneity over the surface of either side of a polished glass substrate, 5 cm×5 cm, followed by rotating the glass substrate at a rate of 1,000 rpm/min for one minute to homogeneously apply the solution over the substrate and then drying the substrate by blowing hot air or cold air in this order to form a thin membrane of any one of the cyanine dyes of the present invention. […]
assay_endpoint: Residual percentage (%) of dye

Look over these answered cases.
>>> result("CN1C(=CC2=[N+](C)c3ccccc3C2(C)C)C(C)(C)c2ccccc21")
15.3
>>> result("CN1C(=CC2=[N+](C)c3ccccc3C23CCCCC3)C(C)(C)c2ccccc21")
33.8
>>> result("CCN1C(=CC2=[N+](CC)c3ccccc3C2(C)Cc2ccccc2)C(C)(Cc2ccccc2)c2ccccc21 (stereo not drawn)")
29.4
>>> result("CN1C(=CC2=[N+](C)c3ccccc3C2(C)Cc2ccccc2)C(C)(C)c2ccccc21 (stereo not drawn) [Chemical Formula 37]")
31.2

A: CN1C(=CC2=[N+](C)c3ccccc3C23CCCCC3)C2(CCCCC2)c2ccccc21
B: CN1C(=CC2=[N+](C)c3ccccc3C2(C)Cc2ccccc2)C(C)(C)c2ccccc21 (stereo not drawn) [Chemical Formula 20]
Prompt: From the items above, decide which of A and B has the lower Residual percentage (%) of dye reading. # answer = label of selected item
Response: A
(A: 35.6%, B: 99.1%)

* * *

assay: Lightfastness of cyanine dye thin membranes under xenon lamp irradiation; type: physicochemical; conditions: thin membrane on glass, 180 W/m^2, 5.5 hours, in combination with lightfastness improver Chemical Formula 34 (azo metal complex)
assay_endpoint: Residual percentage (%) of dye

>>> result("CCN1C(=CC2=[N+](CC)c3ccccc3C2(C)Cc2ccccc2)C(C)(Cc2ccccc2)c2ccccc21 (stereo not shown) [Chemical Formula 33]")
89.9
>>> result("CN1C(=CC2=[N+](C)c3ccccc3C23CCCCC3)C2(CCCCC2)c2ccccc21 [Chemical Formula 40]")
91.5
>>> result("CN1C(=CC2=[N+](C)c3ccccc3C23CCCCC3)C(C)(C)c2ccccc21 [Chemical Formula 41]")
93.8
>>> result("CN1C(=CC2=[N+](C)c3ccccc3C2(C)Cc2ccccc2)C(C)(C)c2ccccc21 (stereo not shown) [Chemical Formula 37]")
90.3

* * *

Experiment: Decomposition point on DSC analysis
Type: physicochemical
Conditions: onset temperature of exothermic peak induced by decomposition
Text: The decomposition points of organic dye compounds such as cyanine dyes can be determined on, for example, commonly used differential scanning calorimetric analysis (abbreviated as “DSC”, hereinafter). The melting point means a peak top temperature of endothermic peak during temperature increase on DSC analysis, while the decomposition point means an onset temperature of exothermic peak induced by decomposition during temperature increase on DSC analysis. […]
assay_endpoint: decomposition point

Prompt: Look at this compound and give its reported decomposition point. CN1C(=CC2=[N+](C)c3ccccc3C2(C)Cc2ccccc2)C(C)(C)c2ccccc21 (centres unmarked) [Chemical Formula 20]
Response: ~273 °C
